Data credit: the OligoGym collection

measured.on: MRFAP1
assay.method.text: reporter assay of Huesken 2005; further: test concentration or dose not given here
assay.conditions: siRNA
Oligonucleotides are written 5' to 3', each unit as a sugar letter and its base; * is a phosphorothioate linkage, no mark a phosphodiester; rarer units and linkages stand in square brackets, end groups in braces. Plain capitals give the bases only. d = 2'-deoxy (DNA); r = 2'-OH (RNA)
The substances listed here are annotated with their normalised inhibition (eCFP-eYFP dual reporter).
Give the number; % is assumed, so skip it.

[ask] May I ask what normalised inhibition (eCFP-eYFP dual reporter) has been recorded for sense rUrCrUrUrCrGrUrGrArGrCrCrGrUrCrCrGrCrGdTdT / antisense rCrGrCrGrGrArCrGrGrCrUrCrArCrGrArArGrAdCdT ?
[reply] 35.4

[ask] May I ask what normalised inhibition (eCFP-eYFP dual reporter) has been recorded for sense rCrUrGrUrGrGrGrArGrArUrGrGrArCrArArUrAdTdT / antisense rUrArUrUrGrUrCrCrArUrCrUrCrCrCrArCrArGdCdT ?
[reply] 82.9

[ask] May I ask what normalised inhibition (eCFP-eYFP dual reporter) has been recorded for sense rUrGrGrArCrArArUrArUrGrCrUrGrArUrCrCrAdTdT / antisense rUrGrGrArUrCrArGrCrArUrArUrUrGrUrCrCrAdTdC ?
[reply] 91.5

---

measured.on: UBE2S
assay.method.text: reporter assay of Huesken 2005
assay.conditions: siRNA
Oligonucleotides are written 5' to 3', each unit as a sugar letter and its base; * is a phosphorothioate linkage, no mark a phosphodiester; rarer units and linkages stand in square brackets, end groups in braces. Plain capitals give the bases only. d = 2'-deoxy (DNA); r = 2'-OH (RNA)
The substances listed here are annotated with their normalised inhibition (eCFP-eYFP dual reporter).
Give the number; % is assumed, so skip it.

Example substances with recorded normalised inhibition (eCFP-eYFP dual reporter):
substance	recorded.number
sense rGrGrArGrArArCrUrArCrGrArGrGrArGrUrArUdTdT / antisense rArUrArCrUrCrCrUrCrGrUrArGrUrUrCrUrCrCdAdA	56.3
sense rGrGrGrCrUrGrArGrGrGrUrCrCrCrArUrGrGrCdTdT / antisense rGrCrCrArUrGrGrGrArCrCrCrUrCrArGrCrCrCdCdT	45.7
sense rArCrGrGrCrUrGrArGrCrUrGrGrGrCrArUrCrCdTdT / antisense rGrGrArUrGrCrCrCrArGrCrUrCrArGrCrCrGrUdCdC	52.3
sense rUrCrUrGrUrUrCrCrGrCrArUrGrArArArCrUrCdTdT / antisense rGrArGrUrUrUrCrArUrGrCrGrGrArArCrArGrAdCdC	42.3
sense rArCrCrCrCrArUrArUrGrCrUrGrGrArGrGrUrCdTdT / antisense rGrArCrCrUrCrCrArGrCrArUrArUrGrGrGrGrUdCdC	49.9

[ask] May I ask what normalised inhibition (eCFP-eYFP dual reporter) has been recorded for sense rCrCrUrGrArGrGrGrGrArCrCrCrCrArUrArUrGdTdT / antisense rCrArUrArUrGrGrGrGrUrCrCrCrCrUrCrArGrGdGdC ?
[reply] 25.2

---

measured.on: SOST
assay.method.text: reporter assay of Huesken 2005
assay.conditions: siRNA
Oligonucleotides are given in HELM: sugar(base)linkage, 5' to 3'; d 2'-deoxyribose, r ribose, m 2'-O-methylribose, p phosphate. ss, as = sense and antisense strand
measurement.label: normalised inhibition (eCFP-eYFP dual reporter) (%)
Give the number; % is assumed, so skip it.

substance	recorded.number
RNA1{r(C)p.r(A)p.r(A)p.r(G)p.r(U)p.r(G)p.r(G)p.r(U)p.r(G)p.r(G)p.r(C)p.r(G)p.r(A)p.r(C)p.r(C)p.r(U)p.r(A)p.r(G)p.r(U)p.d(T)p.d(T)}|RNA2{r(A)p.r(C)p.r(U)p.r(A)p.r(G)p.r(G)p.r(U)p.r(C)p.r(G)p.r(C)p.r(C)p.r(A)p.r(C)p.r(C)p.r(A)p.r(C)p.r(U)p.r(U)p.r(G)p.d(C)p.d(C)}$$$RNA1{StrandType:ss}|RNA2{StrandType:as}$	64.5
RNA1{r(U)p.r(C)p.r(A)p.r(A)p.r(G)p.r(A)p.r(A)p.r(U)p.r(G)p.r(A)p.r(U)p.r(G)p.r(C)p.r(C)p.r(A)p.r(C)p.r(G)p.r(G)p.r(A)p.d(T)p.d(T)}|RNA2{r(U)p.r(C)p.r(C)p.r(G)p.r(U)p.r(G)p.r(G)p.r(C)p.r(A)p.r(U)p.r(C)p.r(A)p.r(U)p.r(U)p.r(C)p.r(U)p.r(U)p.r(G)p.r(A)p.d(A)p.d(C)}$$$RNA1{StrandType:ss}|RNA2{StrandType:as}$	68.7

// below: normalised inhibition (eCFP-eYFP dual reporter) requested for another substance
[ask] May I ask what normalised inhibition (eCFP-eYFP dual reporter) has been recorded for `RNA1{r(C)p.r(A)p.r(A)p.r(G)p.r(U)p.r(G)p.r(C)p.r(A)p.r(A)p.r(G)p.r(C)p.r(G)p.r(C)p.r(C)p.r(U)p.r(C)p.r(A)p.r(C)p.r(C)p.d(T)p.d(T)}|RNA2{r(G)p.r(G)p.r(U)p.r(G)p.r(A)p.r(G)p.r(G)p.r(C)p.r(G)p.r(C)p.r(U)p.r(U)p.r(G)p.r(C)p.r(A)p.r(C)p.r(U)p.r(U)p.r(G)p.d(C)p.d(A)}$$$RNA1{StrandType:ss}|RNA2{StrandType:as}$` ?
[reply] 68.8

---

measured.on: TMEM63B
assay.method.text: reporter assay of Huesken 2005
assay.conditions: siRNA
Oligonucleotides are given in HELM: sugar(base)linkage, 5' to 3'; d 2'-deoxyribose, r ribose, m 2'-O-methylribose, p phosphate. ss, as = sense and antisense strand
The substances listed here are annotated with their normalised inhibition (eCFP-eYFP dual reporter).
Give the number; % is assumed, so skip it.

Example substances with recorded normalised inhibition (eCFP-eYFP dual reporter):
substance	recorded.number
RNA1{r(C)p.r(U)p.r(G)p.r(C)p.r(U)p.r(C)p.r(A)p.r(U)p.r(G)p.r(U)p.r(A)p.r(C)p.r(A)p.r(U)p.r(G)p.r(A)p.r(U)p.r(C)p.r(C)p.d(T)p.d(T)}|RNA2{r(G)p.r(G)p.r(A)p.r(U)p.r(C)p.r(A)p.r(U)p.r(G)p.r(U)p.r(A)p.r(C)p.r(A)p.r(U)p.r(G)p.r(A)p.r(G)p.r(C)p.r(A)p.r(G)p.d(G)p.d(C)}$$$RNA1{StrandType:ss}|RNA2{StrandType:as}$	49
RNA1{r(A)p.r(U)p.r(C)p.r(C)p.r(U)p.r(C)p.r(A)p.r(U)p.r(C)p.r(C)p.r(C)p.r(A)p.r(A)p.r(G)p.r(A)p.r(U)p.r(G)p.r(A)p.r(G)p.d(T)p.d(T)}|RNA2{r(C)p.r(U)p.r(C)p.r(A)p.r(U)p.r(C)p.r(U)p.r(U)p.r(G)p.r(G)p.r(G)p.r(A)p.r(U)p.r(G)p.r(A)p.r(G)p.r(G)p.r(A)p.r(U)p.d(G)p.d(A)}$$$RNA1{StrandType:ss}|RNA2{StrandType:as}$	53.8

// below: normalised inhibition (eCFP-eYFP dual reporter) requested for another substance
[ask] Which measured normalised inhibition (eCFP-eYFP dual reporter) belongs to `RNA1{r(G)p.r(U)p.r(G)p.r(A)p.r(A)p.r(U)p.r(G)p.r(A)p.r(G)p.r(A)p.r(A)p.r(G)p.r(C)p.r(C)p.r(U)p.r(C)p.r(U)p.r(U)p.r(G)p.d(T)p.d(T)}|RNA2{r(C)p.r(A)p.r(A)p.r(G)p.r(A)p.r(G)p.r(G)p.r(C)p.r(U)p.r(U)p.r(C)p.r(U)p.r(C)p.r(A)p.r(U)p.r(U)p.r(C)p.r(A)p.r(C)p.d(C)p.d(T)}$$$RNA1{StrandType:ss}|RNA2{StrandType:as}$` , tested on TMEM63B?
[reply] 69.3

---

measured.on: SOST
assay.method.text: reporter assay of Huesken 2005
assay.conditions: siRNA
Oligonucleotides are given in HELM: sugar(base)linkage, 5' to 3'; d 2'-deoxyribose, r ribose, m 2'-O-methylribose, p phosphate. ss, as = sense and antisense strand
The substances listed here are annotated with their normalised inhibition (eCFP-eYFP dual reporter).
Give the number; % is assumed, so skip it.

[ask] Which measured normalised inhibition (eCFP-eYFP dual reporter) belongs to `RNA1{r(G)p.r(C)p.r(U)p.r(A)p.r(C)p.r(C)p.r(G)p.r(C)p.r(G)p.r(C)p.r(G)p.r(C)p.r(A)p.r(G)p.r(C)p.r(G)p.r(C)p.r(G)p.r(U)p.d(T)p.d(T)}|RNA2{r(A)p.r(C)p.r(G)p.r(C)p.r(G)p.r(C)p.r(U)p.r(G)p.r(C)p.r(G)p.r(C)p.r(G)p.r(C)p.r(G)p.r(G)p.r(U)p.r(A)p.r(G)p.r(C)p.d(G)p.d(G)}$$$RNA1{StrandType:ss}|RNA2{StrandType:as}$` , tested on SOST?
[reply] 51.8

[ask] Which measured normalised inhibition (eCFP-eYFP dual reporter) belongs to `RNA1{r(A)p.r(G)p.r(A)p.r(C)p.r(C)p.r(A)p.r(U)p.r(G)p.r(A)p.r(A)p.r(C)p.r(C)p.r(G)p.r(G)p.r(G)p.r(C)p.r(G)p.r(G)p.r(A)p.d(T)p.d(T)}|RNA2{r(U)p.r(C)p.r(C)p.r(G)p.r(C)p.r(C)p.r(C)p.r(G)p.r(G)p.r(U)p.r(U)p.r(C)p.r(A)p.r(U)p.r(G)p.r(G)p.r(U)p.r(C)p.r(U)p.d(T)p.d(G)}$$$RNA1{StrandType:ss}|RNA2{StrandType:as}$` , tested on SOST?
[reply] 78.8
